# credit: patent US7935700B2

Target: human eosinophils
Assay: Binding inhibitory test of chemokine ([125I]-eotaxin) to human eosinophils
Settings: 50 pmol/L [125I]-eotaxin, 2x10^5 eosinophils, 25°C, 1 hr; read-out: IC50 (concentration of test compound necessary for decreasing binding of [125I]-eotaxin to human eosinophils by 50%)
Source text: Binding Inhibitory Test of Chemokine to Human Eosinophils Human eosinophils were separated by the CD16 negative selection method from anticoagulation-treated peripheral blood of healthy subject (e.g., J. Immunol. Methods, vol. 145, pages 105-110, 1991). […]
Where a name gives a salt, the structure may show the parent alone.
Measured Endpoint: IC50 (nM)

INSERT INTO results (molecule, target_system, unit_descriptor, observed_measurement) VALUES
  ('Nc1cccc(-c2csc(SCC(=O)NC[C@H]3CN(Cc4ccc(Cl)c(Cl)c4)CCO3)n2)c1', 'human eosinophils', 'nM', 12.7),
  ('O=C(CSc1nc(-c2ccncc2)cs1)NC[C@H]1CN(Cc2ccc(Cl)c(Cl)c2)CCO1', 'human eosinophils', 'nM', 0.8),
  ('Cc1nc(-c2csc(SCC(=O)NC[C@H]3CN(Cc4ccc(Cl)c(Cl)c4)CCO3)n2)no1 [Example 23, hydrochloride]', 'human eosinophils', 'nM', 1),
  ('COc1ccc(-c2csc(SCC(=O)NC[C@H]3CN(Cc4ccc(Cl)c(Cl)c4)CCO3)n2)cc1OC', 'human eosinophils', 'nM', 0.4),
  ('NC(=O)c1cc(-c2csc(SCC(=O)NC[C@H]3CN(Cc4ccc(Cl)c(Cl)c4)CCO3)n2)ccc1O', 'human eosinophils', 'nM', 2.4),
  ('NC(=O)c1csc(SCC(=O)NC[C@H]2CN(Cc3ccc(Cl)c(Cl)c3)CCO2)n1', 'human eosinophils', 'nM', 0.4);
